Where do the numbers come from? From ChEMBL document CHEMBL3988442.

# Tested on: Wolbachia pipientis
# experiment-description: Anti-Wolbachia Cell-Based Screen
# Format: functional
# Parameters: scale not given: in the data most compounds retested in dose-response had high values
# run-parameters: 5 µM
Hit rate of the full screen: of about 48,000 compounds, about 13,000 (27%) showed an effect of 50% or more. Some of the results follow.
property-label: Percent Effect (%)

INSERT INTO results (compound, test_system, observed) VALUES
  ('CNC(=O)CCc1cc(C)nc(C2CCN(c3cnccn3)CC2)c1', 'Wolbachia pipientis', 163),
  ('CNC(=O)CCc1cc(C)nc(C2CCN(C3CCCCC3)CC2)c1', 'Wolbachia pipientis', 132.7),
  ('O=C(O)C(F)(F)F.O=C(c1ccsc1)N1CCO[C@@H]2CN(Cc3nccs3)C[C@@H]2C1', 'Wolbachia pipientis', 102),
  ('CCS(=O)(=O)N1C[C@@H]2CN(Cc3ccco3)CCO[C@@H]2C1.O=C(O)C(F)(F)F', 'Wolbachia pipientis', -13.85),
  ('c1csc(CN2C[C@H]3CCC[C@@]3(COCC3CCOCC3)C2)n1', 'Wolbachia pipientis', 5.846),
  ('Cc1cc(C(=O)N2C[C@@H](CN3CCOCC3)C[C@H](CO)C2)nc(C)n1', 'Wolbachia pipientis', -2.252),
  ('Cn1cc(CN2CCO[C@@H]3CN(Cc4ccoc4)C[C@@H]3C2)cn1.O=C(O)C(F)(F)F.O=C(O)C(F)(F)F', 'Wolbachia pipientis', 9.777),
  ('CN(C)CCN1CCO[C@H]2CN(C(=O)N(C)C)C[C@H]21.O=C(O)C(F)(F)F.O=C(O)C(F)(F)F', 'Wolbachia pipientis', 6.005),
  ('CNC(=O)CCc1cc(C)nc(C2CCCN2)c1 (centres undefined)', 'Wolbachia pipientis', -6.068);
